Just for reference, patent US6284774A is where these values come from.

biological target: NRIA /2A (Rattus norvegicus, UniProt P35439+Q00959); test: Electrophysiological assay at NMDA receptor subunits NR1A/2A expressed in Xenopus oocytes; settings: rat clones in Xenopus oocytes, currents activated by glutamate (100 μM) and glycine (1-100 μM)
Sequence (Q00959 23-1464, other chains not shown): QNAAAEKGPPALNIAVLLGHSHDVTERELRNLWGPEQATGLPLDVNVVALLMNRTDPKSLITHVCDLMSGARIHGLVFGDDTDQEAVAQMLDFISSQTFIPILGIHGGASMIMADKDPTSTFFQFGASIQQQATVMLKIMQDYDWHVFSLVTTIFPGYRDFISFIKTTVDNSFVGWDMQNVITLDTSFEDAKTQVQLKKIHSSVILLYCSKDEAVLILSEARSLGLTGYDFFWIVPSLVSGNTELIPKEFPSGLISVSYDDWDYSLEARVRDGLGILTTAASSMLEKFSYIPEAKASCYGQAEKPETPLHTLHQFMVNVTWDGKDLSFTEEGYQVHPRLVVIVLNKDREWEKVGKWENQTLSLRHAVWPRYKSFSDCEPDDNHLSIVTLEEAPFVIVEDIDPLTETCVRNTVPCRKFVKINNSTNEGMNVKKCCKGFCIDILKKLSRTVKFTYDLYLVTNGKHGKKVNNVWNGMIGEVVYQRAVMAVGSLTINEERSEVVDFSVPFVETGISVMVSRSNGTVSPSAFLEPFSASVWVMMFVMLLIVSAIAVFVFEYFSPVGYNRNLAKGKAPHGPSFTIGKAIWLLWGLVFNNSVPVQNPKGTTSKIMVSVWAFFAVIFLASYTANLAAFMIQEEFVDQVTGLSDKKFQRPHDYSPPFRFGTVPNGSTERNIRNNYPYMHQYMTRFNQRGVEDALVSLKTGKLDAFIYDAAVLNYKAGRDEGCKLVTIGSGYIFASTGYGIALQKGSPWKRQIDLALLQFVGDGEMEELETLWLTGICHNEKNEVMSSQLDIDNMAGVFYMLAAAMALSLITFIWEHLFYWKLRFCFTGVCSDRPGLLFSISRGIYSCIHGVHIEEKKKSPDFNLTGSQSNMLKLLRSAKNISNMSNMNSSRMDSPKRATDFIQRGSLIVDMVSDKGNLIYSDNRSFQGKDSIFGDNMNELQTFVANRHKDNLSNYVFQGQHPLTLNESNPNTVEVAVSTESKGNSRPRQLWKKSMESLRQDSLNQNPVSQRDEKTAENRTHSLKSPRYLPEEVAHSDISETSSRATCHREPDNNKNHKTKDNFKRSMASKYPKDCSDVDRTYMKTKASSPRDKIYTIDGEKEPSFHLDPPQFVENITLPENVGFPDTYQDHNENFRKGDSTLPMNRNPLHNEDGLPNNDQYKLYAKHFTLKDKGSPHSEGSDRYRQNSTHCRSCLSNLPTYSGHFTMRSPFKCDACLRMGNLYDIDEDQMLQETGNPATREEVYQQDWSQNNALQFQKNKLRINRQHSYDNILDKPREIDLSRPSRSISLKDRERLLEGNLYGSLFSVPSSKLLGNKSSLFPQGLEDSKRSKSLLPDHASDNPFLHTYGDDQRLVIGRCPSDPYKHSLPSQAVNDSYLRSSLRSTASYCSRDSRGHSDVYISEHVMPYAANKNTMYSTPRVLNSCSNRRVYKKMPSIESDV
PARAMETER: IC50 (µM)

Query: // Input: O=c1[nH]c2ccc([S+]([O-])CCN3CCC(Cc4ccc(F)cc4)CC3)cc2o1 (stereo not drawn) . Output its IC50 only.
Result: 105

Query: // Input: COc1ccc(CC2CCN(CC[S+]([O-])c3ccc4[nH]c(=O)oc4c3)CC2)cc1 (stereo not drawn) . Output its IC50 only.
Result: 55

Query: // Input: O=c1[nH]c2ccc([S+]([O-])CCN3CCC(Cc4ccc(F)cc4F)CC3)cc2o1 (stereo not drawn) . Output its IC50 only.
Result: 30

Query: // Input: O=c1[nH]c2ccc([S+]([O-])CCN3CCC(Cc4ccc(Cl)c(Cl)c4)CC3)cc2o1 (stereo not drawn) . Output its IC50 only.
Result: 70

Query: // Input: O=c1[nH]c2ccc([S+]([O-])CCN3CCC(Cc4ccc(Cl)cc4Cl)CC3)cc2o1 (stereo not drawn) . Output its IC50 only.
Result: 90

Query: // Input: O=c1[nH]c2ccc([S+]([O-])CCN3CCC(Cc4cccc(F)c4F)CC3)cc2o1 (stereo not drawn) . Output its IC50 only.
Result: 40

Query: // Input: O=c1[nH]c2ccc([S+]([O-])CCN3CCC(O)(Cc4ccc(F)cc4)CC3)cc2o1 (stereo not drawn) . Output its IC50 only.
Result: 50

Query: // Input: O=c1[nH]c2ccc([S+]([O-])CCN3CCC(Cc4c(F)cccc4F)CC3)cc2o1 (stereo not drawn) . Output its IC50 only.
Result: 55

I = O=c1[nH]c2ccc([S+]([O-])CCN3CCC(Cc4ccc(C(F)(F)F)cc4)CC3)cc2o1 (stereo not drawn)
II = O=C(c1ccccc1)C1CCN(CC[S+]([O-])c2ccc3[nH]c(=O)oc3c2)CC1 (stereo not drawn)
III = Cc1ccc(CC2CCN(CC[S+]([O-])c3ccc4[nH]c(=O)oc4c3)CC2)cc1 (stereo not drawn)
Query: Order the records by IC50, with each subsequent value no larger than the one before. Respond with an ordered listing of the labels, as requested.
Result: III, II, I

a = O=c1[nH]c2ccc([S+]([O-])CCN3CCC(Cc4ccccc4F)CC3)cc2o1 (stereo not drawn)
b = O=c1[nH]c2cc(Cl)c([S+]([O-])CCN3CCC(Cc4ccc(F)cc4)CC3)cc2o1 (stereo not drawn)
Query: Higher IC50 between a and b ? Which one? Tell me its label.
Result: a
(a: 55 µM, b: 35 µM)
